Measured values drawn from ChEMBL document CHEMBL1782051 for this set.

molecular target: Acetylcholinesterase (Homo sapiens, UniProt P22303); assay: Inhibition of AChE
Sequence (P22303 whole entry): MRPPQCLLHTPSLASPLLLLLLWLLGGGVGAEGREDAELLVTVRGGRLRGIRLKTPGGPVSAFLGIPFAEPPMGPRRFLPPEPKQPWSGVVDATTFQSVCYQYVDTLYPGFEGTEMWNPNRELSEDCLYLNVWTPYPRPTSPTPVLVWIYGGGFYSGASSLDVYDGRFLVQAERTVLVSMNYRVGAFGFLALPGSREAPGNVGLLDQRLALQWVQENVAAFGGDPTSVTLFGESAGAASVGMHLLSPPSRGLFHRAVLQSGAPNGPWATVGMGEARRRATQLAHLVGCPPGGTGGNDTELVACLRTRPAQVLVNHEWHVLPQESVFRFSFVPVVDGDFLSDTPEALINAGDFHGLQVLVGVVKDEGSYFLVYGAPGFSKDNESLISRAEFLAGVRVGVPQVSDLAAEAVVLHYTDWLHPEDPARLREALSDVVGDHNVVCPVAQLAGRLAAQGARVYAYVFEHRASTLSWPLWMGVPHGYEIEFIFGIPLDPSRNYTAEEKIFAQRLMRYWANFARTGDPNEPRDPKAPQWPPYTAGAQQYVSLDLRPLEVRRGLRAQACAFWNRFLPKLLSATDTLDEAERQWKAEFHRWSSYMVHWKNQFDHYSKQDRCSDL
Reported property: IC50 (µM)
The response must be a number in µM with no trailing unit.

Q. Param item = Cc1ccc2c(c1)c1c(n2CCc2ccc(C)nc2)CCN(C)C1 [LATREPIRDINE] ; retrieve measured IC50.
A. 45

----------
molecular target: 5-hydroxytryptamine receptor 6 (Homo sapiens, UniProt P50406); test: Antagonist activity at human recombinant 5-HT6 receptor expressed in HEK293 cells assessed as inhibition of serotonin-induced intracellular cAMP accumulation by LANCE technique; assay type: functional, cell-based; settings: read-out: IC50
Sequence (P50406 whole entry): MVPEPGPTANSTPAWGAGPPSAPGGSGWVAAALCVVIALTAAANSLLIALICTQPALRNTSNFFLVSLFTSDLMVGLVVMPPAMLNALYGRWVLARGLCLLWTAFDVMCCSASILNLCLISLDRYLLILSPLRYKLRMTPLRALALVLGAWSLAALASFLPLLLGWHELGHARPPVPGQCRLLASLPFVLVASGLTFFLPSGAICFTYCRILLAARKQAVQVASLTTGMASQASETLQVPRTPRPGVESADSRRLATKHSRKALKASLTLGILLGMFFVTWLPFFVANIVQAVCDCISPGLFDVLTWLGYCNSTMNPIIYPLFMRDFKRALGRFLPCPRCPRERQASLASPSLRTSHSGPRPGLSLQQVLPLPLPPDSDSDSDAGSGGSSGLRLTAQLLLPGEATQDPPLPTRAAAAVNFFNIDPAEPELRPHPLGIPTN
Overview of reported pIC50 across a group of molecules:
The meaning of pIC50 here: minus log10 of the concentration in molar units.

For orientation, consider the following solved cases.
CN1CCc2c(c3cc(C(F)(F)F)ccc3n2CCc2ccccn2)C1: 5.80
Cc1ccc2c(c1)c1c(n2CCc2ccncc2)CCN(C)C1: 6.43

Q. Param item = `Cc1ccc2c(c1)c1c(n2CCc2cnccn2)CCN(C)C1` ; retrieve measured pIC50.
A. 5.69

Q. Param item = `CN1CCc2c(c3cc(-c4cccnc4)ccc3n2CCc2ccccn2)C1` ; retrieve measured pIC50.
A. 4.36

Q. Param item = `CN1CCc2c(c3cc(F)ccc3n2CCc2ccccn2)C1` ; retrieve measured pIC50.
A. 5.53

Q. Param item = `CN1CCc2c(c3cc(Br)ccc3n2CCc2ccccn2)C1` ; retrieve measured pIC50.
A. 5.98

Q. Param item = `COc1ccc2c(c1)c1c(n2CCc2ccncc2)CCN(C)C1` ; retrieve measured pIC50.
A. 5.36
